measurementTarget: human GPRC5D (human, UniProt Q9NZD1 1-345)
Sequence (Q9NZD1 whole entry): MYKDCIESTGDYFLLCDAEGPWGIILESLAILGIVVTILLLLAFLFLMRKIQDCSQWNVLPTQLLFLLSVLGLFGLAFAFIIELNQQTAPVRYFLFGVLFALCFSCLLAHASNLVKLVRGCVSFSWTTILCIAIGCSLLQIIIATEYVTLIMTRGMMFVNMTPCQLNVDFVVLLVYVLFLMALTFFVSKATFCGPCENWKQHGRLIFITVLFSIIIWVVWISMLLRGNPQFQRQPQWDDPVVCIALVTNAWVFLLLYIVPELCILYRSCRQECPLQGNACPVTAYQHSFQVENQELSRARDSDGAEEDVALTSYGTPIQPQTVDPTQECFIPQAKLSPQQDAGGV
runDescription: cell-based or functional assay
Threshold check on CAR-J2 EC50: at or above 0.02 µg/mL gives 1, strictly below gives 0.

P1AE5752 (antibody, V domains shown) VH: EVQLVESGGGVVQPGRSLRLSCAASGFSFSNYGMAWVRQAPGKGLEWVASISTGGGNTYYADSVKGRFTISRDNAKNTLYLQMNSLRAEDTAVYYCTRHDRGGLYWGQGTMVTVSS VL: DIVMTQSPLSLPVTPGEPASISCRSSKSLLHSNGITYVYWYLQKPGQSPQLLIYRMSNRASGVPDRFSGSGSGTDFTLKISRVEAEDVGVYHCGQLLENPYTFGQGTKLEIK: 1
P1AE5741 (antibody, V domains shown) VH: EVQLVESGGGVVQPGRSLRLSCAASGFSFSNYGMAWVRQAPGKGLEWVASISTGGGNTYYRDSVKGRFTISRDNAKNTLYLQMNSLRAEDTAVYYCTRHDRGGLYWGQGTMVTVSS VL: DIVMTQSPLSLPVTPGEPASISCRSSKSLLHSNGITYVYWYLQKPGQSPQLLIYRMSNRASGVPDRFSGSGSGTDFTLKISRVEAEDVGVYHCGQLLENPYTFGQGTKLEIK: 0

Assess whether reported CAR-J2 EC50 for P1AE5736 (antibody, V domains shown) VH: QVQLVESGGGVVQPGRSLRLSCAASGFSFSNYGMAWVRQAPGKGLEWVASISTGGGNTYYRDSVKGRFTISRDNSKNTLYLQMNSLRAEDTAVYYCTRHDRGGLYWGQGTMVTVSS VL: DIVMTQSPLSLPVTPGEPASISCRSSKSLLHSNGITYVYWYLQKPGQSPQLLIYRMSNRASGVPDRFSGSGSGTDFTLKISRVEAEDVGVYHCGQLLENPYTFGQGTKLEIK sits at 0.02 µg/mL or higher.
0

Also P1AE5733 (antibody, V domains shown) VH: EVQLVESGGGLVQPGRSLKLSCAASGFSFSNYGMAWVRQAATKGLEWVASISTGGGNTYYRDSVKGRFIVSRDNAKNTQYLQMDSLRSEDTATYYCTRHDRGGLYWGQGVMVTVSS VL: DIVMTQAPLSVSVTPGESASISCRSSKSLLHSNGITYVYWYFQKPGKSPQVLIYRMSNLASGVPDRFSGSGSETDFTLKISRVEAEDVGIYHCGQLLENPYTFGAGTELELK ?
0

Also P1AE5735 (antibody, V domains shown) VH: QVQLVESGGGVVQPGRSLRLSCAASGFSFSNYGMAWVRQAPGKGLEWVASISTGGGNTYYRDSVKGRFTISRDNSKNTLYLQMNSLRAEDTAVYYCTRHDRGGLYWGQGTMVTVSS VL: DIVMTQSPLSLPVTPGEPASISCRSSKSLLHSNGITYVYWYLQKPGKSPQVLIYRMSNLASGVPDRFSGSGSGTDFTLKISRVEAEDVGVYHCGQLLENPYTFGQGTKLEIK ?
1

Also P1AE5739 (antibody, V domains shown) VH: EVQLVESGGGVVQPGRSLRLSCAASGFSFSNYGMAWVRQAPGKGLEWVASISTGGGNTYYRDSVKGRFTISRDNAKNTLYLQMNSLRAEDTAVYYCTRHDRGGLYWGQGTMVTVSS VL: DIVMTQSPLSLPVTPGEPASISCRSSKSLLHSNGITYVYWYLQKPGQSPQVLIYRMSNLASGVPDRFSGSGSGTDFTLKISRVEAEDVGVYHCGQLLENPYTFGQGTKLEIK ?
1

Also P1AE5742 (antibody, V domains shown) VH: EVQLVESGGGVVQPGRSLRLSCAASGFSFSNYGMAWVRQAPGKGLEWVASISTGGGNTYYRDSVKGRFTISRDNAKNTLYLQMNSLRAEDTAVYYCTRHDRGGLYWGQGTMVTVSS VL: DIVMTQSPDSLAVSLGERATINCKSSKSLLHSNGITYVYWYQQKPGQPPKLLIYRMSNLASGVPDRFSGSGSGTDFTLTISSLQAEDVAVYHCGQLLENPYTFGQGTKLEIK ?
1

Also P1AE5762 (antibody, V domains shown) VH: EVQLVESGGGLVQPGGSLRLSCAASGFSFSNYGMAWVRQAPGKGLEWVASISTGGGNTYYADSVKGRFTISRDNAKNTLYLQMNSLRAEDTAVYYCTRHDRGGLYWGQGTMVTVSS VL: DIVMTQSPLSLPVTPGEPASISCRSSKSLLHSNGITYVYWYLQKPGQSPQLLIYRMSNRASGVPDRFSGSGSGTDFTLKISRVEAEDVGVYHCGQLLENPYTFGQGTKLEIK ?
1

Also P1AE5756 (antibody, V domains shown) VH: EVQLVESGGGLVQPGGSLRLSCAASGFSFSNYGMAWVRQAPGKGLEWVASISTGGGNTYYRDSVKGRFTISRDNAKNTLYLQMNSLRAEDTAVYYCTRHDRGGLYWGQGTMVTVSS VL: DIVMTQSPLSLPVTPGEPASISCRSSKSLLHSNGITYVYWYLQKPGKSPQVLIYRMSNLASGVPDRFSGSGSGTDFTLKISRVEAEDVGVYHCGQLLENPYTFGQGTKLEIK ?
1

Also P1AE5761 (antibody, V domains shown) VH: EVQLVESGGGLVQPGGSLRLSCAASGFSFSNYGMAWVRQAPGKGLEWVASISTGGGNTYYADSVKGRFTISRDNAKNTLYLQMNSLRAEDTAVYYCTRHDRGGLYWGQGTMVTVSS VL: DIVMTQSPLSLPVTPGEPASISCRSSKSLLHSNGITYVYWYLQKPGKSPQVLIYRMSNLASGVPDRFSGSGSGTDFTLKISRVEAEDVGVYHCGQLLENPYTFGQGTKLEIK ?
1
